B1: scFv; the commonest letter at each place (parent)
chain 1: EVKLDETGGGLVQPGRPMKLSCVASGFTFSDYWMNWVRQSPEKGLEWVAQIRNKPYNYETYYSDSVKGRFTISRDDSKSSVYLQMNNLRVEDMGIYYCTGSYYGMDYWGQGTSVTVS
chain 2: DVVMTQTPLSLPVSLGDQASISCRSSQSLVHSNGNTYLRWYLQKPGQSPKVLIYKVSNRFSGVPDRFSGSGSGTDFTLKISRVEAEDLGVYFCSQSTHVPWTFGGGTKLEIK

# Variants of: B1
# method_description: yeast surface expression (ratio to wild type); higher = more expressed
# stated_conditions: format: scFv 4-4-20, heavy + light
measurement_kind: yeast surface expression
One number for each entry.

Please review the entries below; each comes with its answer.
Task: Item under review: chain 1 Y102Q G104H . Reported yeast surface expression?
Output: 0.672

Task: Item under review: chain 1 M34K W36C . Reported yeast surface expression?
Output: 0.509

Task: Item under review: chain 1 S101A Y107S . Reported yeast surface expression?
Output: 0.854

Task: Item under review: chain 1 D106L G109H . Reported yeast surface expression?
Output: 0.0932

Task: Item under review: chain 1 F29V Y32S . Reported yeast surface expression?
Output: 0.999

The following variants each have a reported value; give each one's yeast surface expression.
1. chain 1 D31N M34A
2. chain 1 G104K
3. chain 1 D31N N35T
4. chain 1 G104H D106H
5. chain 1 D31I Y32F
6. chain 1 Y103W G104F M105E
7. chain 1 Y32P V37Y

Output:
0.614
0.557
0.86
0.586
0.369
0.578
0.716
